Origin of the recorded values: patent US6521620B1

STUDY TARGET: Human EGF receptor tyrosine kinase (Homo sapiens, UniProt P00533)
Construct: isolated from A431 human epidermoid carcinoma cells which overexpress EGF receptor; endogenous in cells; host or cells: A431 human epidermoid carcinoma cells; purified from the lysate on wheat germ agglutinin sepharose
Sequence (P00533 25-1210): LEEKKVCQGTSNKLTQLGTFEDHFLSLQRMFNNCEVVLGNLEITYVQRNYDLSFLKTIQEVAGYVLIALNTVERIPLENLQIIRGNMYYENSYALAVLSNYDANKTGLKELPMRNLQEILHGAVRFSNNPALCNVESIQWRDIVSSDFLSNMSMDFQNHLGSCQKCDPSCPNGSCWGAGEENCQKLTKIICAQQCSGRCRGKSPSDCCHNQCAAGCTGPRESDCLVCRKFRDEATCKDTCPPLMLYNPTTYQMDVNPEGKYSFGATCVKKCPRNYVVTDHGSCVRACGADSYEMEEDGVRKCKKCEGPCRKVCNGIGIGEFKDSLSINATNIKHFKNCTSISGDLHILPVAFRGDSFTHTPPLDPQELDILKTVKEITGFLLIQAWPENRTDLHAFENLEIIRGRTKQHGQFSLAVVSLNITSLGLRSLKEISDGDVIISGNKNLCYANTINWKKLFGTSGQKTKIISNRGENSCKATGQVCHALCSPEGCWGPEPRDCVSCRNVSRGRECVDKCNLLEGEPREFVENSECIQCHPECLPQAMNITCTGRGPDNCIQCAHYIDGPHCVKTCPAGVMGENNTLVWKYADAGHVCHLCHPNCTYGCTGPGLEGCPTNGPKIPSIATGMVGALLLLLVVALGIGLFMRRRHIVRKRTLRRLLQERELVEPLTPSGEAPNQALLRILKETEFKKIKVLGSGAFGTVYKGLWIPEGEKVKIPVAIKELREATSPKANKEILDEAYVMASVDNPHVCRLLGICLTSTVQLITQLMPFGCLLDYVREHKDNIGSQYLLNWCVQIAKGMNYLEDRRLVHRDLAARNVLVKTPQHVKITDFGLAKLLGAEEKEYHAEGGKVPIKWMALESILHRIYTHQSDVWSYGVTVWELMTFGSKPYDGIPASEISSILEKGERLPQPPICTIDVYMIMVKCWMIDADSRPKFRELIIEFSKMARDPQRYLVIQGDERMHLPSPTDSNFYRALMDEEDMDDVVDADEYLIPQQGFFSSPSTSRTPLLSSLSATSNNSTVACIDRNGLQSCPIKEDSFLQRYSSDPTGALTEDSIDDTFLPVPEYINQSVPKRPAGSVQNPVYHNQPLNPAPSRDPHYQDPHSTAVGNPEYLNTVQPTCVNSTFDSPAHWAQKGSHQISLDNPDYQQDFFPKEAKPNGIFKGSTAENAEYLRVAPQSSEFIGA
PROTOCOL DETAILS: EGF receptor tyrosine kinase inhibition (phosphorylation of PLC-gamma 1 derived peptide)
Format: biochemical
REPORTED CONDITIONS: Table 1, values printed in μM; read-out: EGF Receptor Tyrosine Kinase Inhibition IC50
# IC50 per record follows

Nc1cc2ncnc(NCc3cccc(C(F)(F)F)c3)c2cn1 [Example 51] ... 1.95 µM
Brc1cccc(Nc2ncnc3cccnc23)c1 [Example 3] ... 1.1 µM
Nc1cc2ncnc(Nc3ccccc3[N+](=O)[O-])c2cn1 [Example 21] ... 1.25 µM
Nc1cccc(Nc2ncnc3cc(N)ncc23)c1 [Example 17] ... 1.55 µM
Nc1cc2ncnc(NCc3ccccc3C(F)(F)F)c2cn1 [Example 50] ... 10 µM

# lookup: IC50 of COc1ccccc1Nc1ncnc2cc(N)ncc12 [Example 16] 3.7 µM

And the next one, Nc1cc2ncnc(NCc3cccs3)c2cn1 [Example 53] ? 1.8 µM

And the next one, COc1cccc(CNc2ncnc3cc(N)ncc23)c1 [Example 45] ? 2.87 µM

And the next one, Brc1cccc(Nc2ncnc3ncccc23)c1 [Example 63] ? 6.1 µM

And the next one, CN(C)c1cccc(Nc2ncnc3cc(N)ncc23)c1 [Example 19] ? 1.8 µM

* * *

# IC50 per record follows
STUDY TARGET: Human EGF receptor tyrosine kinase (Homo sapiens)
Construct: isolated from A431 human epidermoid carcinoma cells which overexpress EGF receptor; endogenous in cells; host or cells: A431 human epidermoid carcinoma cells; purified from the lysate on wheat germ agglutinin sepharose
PROTOCOL DETAILS: EGF receptor tyrosine kinase inhibition (phosphorylation of PLC-gamma 1 derived peptide)
Format: biochemical
REPORTED CONDITIONS: Table 1, values in pM; read-out: EGF Receptor Tyrosine Kinase Inhibition IC50
# unit: pM | format: bare number

These recorded examples may help you get a feel for the data.
CNc1cc2ncnc(Nc3cccc(Br)c3)c2cn1 [Example 33] ... 130
CNc1cc2c(Nc3cccc(Br)c3)ncnc2cn1 [Example 60] ... 8

# lookup: IC50 of CN(C)c1cc2c(Nc3cccc(Br)c3)ncnc2cn1 [Example 61] 6

And the next one, CN(C)c1cc2ncnc(Nc3cccc(Br)c3)c2cn1 [Example 34] ? 91

* * *

STUDY TARGET: Human EGF receptor tyrosine kinase (Homo sapiens, UniProt P00533)
Construct: isolated from A431 human epidermoid carcinoma cells which overexpress EGF receptor; endogenous in cells; host or cells: A431 human epidermoid carcinoma cells; purified from the lysate on wheat germ agglutinin sepharose
PROTOCOL DETAILS: EGF receptor tyrosine kinase inhibition (phosphorylation of PLC-gamma 1 derived peptide)
Type: biochemical
REPORTED CONDITIONS: Table 1, values in nM; read-out: EGF Receptor Tyrosine Kinase Inhibition IC50
MEASUREMENT KIND: IC50 (nM)
# unit: nM | format: bare number

These recorded examples may help you get a feel for the data.
Nc1cc2ncnc(Nc3cccc(C(F)(F)F)c3)c2cn1 [Example 31] ... 15
Nc1cc2ncnc(NCc3ccccc3)c2cn1 [Example 40] ... 578
c1ccc(CNc2ncnc3ccncc23)cc1 [Example 38, 4-Benzylaminopyrido[4,3-d]pyrimidine] ... 71
COc1cccc(Nc2ncnc3cc(N)ncc23)c1 [Example 15] ... 134
Brc1cccc(Nc2ncnc3ccncc23)c1 [Example 11] ... 194
CC(=O)Nc1cc2ncnc(NCc3ccccc3)c2cn1 [Example 54] ... 100
COc1cc2c(Nc3cccc(Br)c3)ncnc2cn1 [Example 59] ... 2.6
NNc1ncc2c(NCc3ccccc3)ncnc2n1 [Example 70] ... 473

# lookup: IC50 of Fc1cc2c(Nc3cccc(Br)c3)ncnc2cn1 [Example 57] 124

And the next one, COc1ccc2ncnc(Nc3cccc(Br)c3)c2n1 [Example 9] ? 405
